- system.name: UniProt Q7MT37
- Sequence (Q7MT37 entry or part of it): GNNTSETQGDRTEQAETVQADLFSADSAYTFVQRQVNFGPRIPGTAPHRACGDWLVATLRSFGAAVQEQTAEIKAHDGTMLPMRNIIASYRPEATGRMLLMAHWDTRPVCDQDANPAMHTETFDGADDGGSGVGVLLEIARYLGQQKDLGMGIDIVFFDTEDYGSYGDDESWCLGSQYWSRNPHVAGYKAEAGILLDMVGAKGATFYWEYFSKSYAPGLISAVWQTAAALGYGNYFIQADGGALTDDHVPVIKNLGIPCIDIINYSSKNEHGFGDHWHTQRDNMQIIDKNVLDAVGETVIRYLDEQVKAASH
- test.name: Inhibition of P. gingivalis glutaminyl cyclase, fluorogenic substrate H-Gln-AMC
- Format: biochemical
- experimental.context: recombinant QC, competitive inhibition fit; read-out: Ki PgQC
Could you please report measured pKi for the items listed next?
One number for each entry, as −log10 of the molar value.

Consider the reported pKi for these compounds:
O=C(c1cccc(-c2ccccc2)c1)N1CCc2[nH]cnc2C1 [8v] ... 6.26
COc1cc(Cl)cc(C(=O)N2CCc3[nH]cnc3C2)c1 [8t] ... 7.06
O=C(c1ccc(Cl)cc1)N1CCc2[nH]cnc2C1 [8h] ... 6.17
CCCOc1cccc(C(=O)N2CCc3[nH]cnc3C2)c1 [8r] ... 6.11
c1ccc2[nH]cnc2c1 [compound 1, benzimidazole, reference compound] ... 4.49

Please supply pKi for each of the following items, keeping them in order.
1. COc1ccc(C(=O)N2CCc3[nH]cnc3C2)cc1OC [8n]
2. O=C(/C=C/c1ccccc1)N1CCc2[nH]cnc2C1 [8d]
3. c1ccc(Cn2ccnc2)cc1 [compound 3, N-benzylimidazole, reference compound]

**A:**
[5.83, 5.80, 5.00]

Please supply pKi for each of the following items, keeping them in order.
1. COc1ccc(NC(=S)NCCCn2ccnc2)cc1OC [PQ50, reference compound]
2. O=C(c1ccccc1)N1CCc2[nH]cnc2C1 [8a]
3. O=C(c1cccc(F)c1)N1CCc2[nH]cnc2C1 [8f]
4. O=C(c1cccc(Cl)c1)N1CCc2[nH]cnc2C1 [8i]
5. COc1cccc(C(=O)N2CCc3[nH]cnc3C2)c1 [8m]
6. O=C(c1ccc(-c2ccccc2)cc1)N1CCc2[nH]cnc2C1 [8u]
7. O=C(CCc1ccccc1)N1CCc2[nH]cnc2C1 [8c]

**A:**
1. 5.22
2. 6.36
3. 6.49
4. 6.76
5. 6.47
6. 5.72
7. 5.76

Please supply pKi for each of the following items, keeping them in order.
1. O=C(c1ccc(F)cc1)N1CCc2[nH]cnc2C1 [8e]
2. O=C(c1cc(F)c(F)c(F)c1)N1CCc2[nH]cnc2C1 [8g]
3. CC1c2nc[nH]c2CCN1Cc1ccccc1 (centres unmarked) [7d]
4. COc1cc(C(=O)N2CCc3[nH]cnc3C2)ccc1F [8s]
5. O=C(c1ccc2c(c1)OCO2)N1CCc2[nH]cnc2C1 [8q]

**A:**
1. 6.06
2. 6.04
3. 5.51
4. 5.91
5. 6.25

Please supply pKi for each of the following items, keeping them in order.
1. O=C(c1cc(Cl)cc(Cl)c1)N1CCc2nc[nH]c2C1 [8k]
2. O=C(c1ccc(Cl)c(Cl)c1)N1CCc2[nH]cnc2C1 [8j]
3. O=C(Cc1ccccc1)N1CCc2[nH]cnc2C1 [8b]

**A:**
[7.00, 6.59, 5.77]

====

- system.name: UniProt:Q7MT37
- test.name: Inhibition of P. gingivalis glutaminyl cyclase, fluorogenic substrate H-Gln-AMC
- Type: biochemical
- experimental.context: recombinant QC, competitive inhibition fit; read-out: Ki PgQC
Could you please report measured pKi for the items listed next?
One number for each entry, as −log10 of the molar value.

Consider the reported pKi for these compounds:
c1ccc(CN2CCc3[nH]cnc3C23COC3)cc1 ... 5.76
COc1ccc(C(=O)N2CCc3[nH]cnc3C2)cc1 ... 6.08
O=C(c1ccc2c(c1)OCCO2)N1CCc2[nH]cnc2C1 ... 5.87
c1ccc(CN2CCc3[nH]cnc3C2)cc1 ... 6.04
COc1cc(OC)cc(C(=O)N2CCc3[nH]cnc3C2)c1 ... 6.03
c1c[nH]cn1 [compound 2, imidazole, reference compound] ... 3.46

**Q:** Give the measured pKi of `c1ccc(CCN2CCc3[nH]cnc3C2)cc1` .
**A:** 5.19
